Where a SMILES comes first, the peptide text is derived from it. Bridges are numbered along the chain shown (N, C = ends). [ ]: non-standard residue; d: D form. 2Nal = N[C@@H](Cc1ccc2ccccc2c1)C(=O)O; d2Nal = N[C@H](Cc1ccc2ccccc2c1)C(=O)O
GRP receptors on rat pancreatic acini (Rattus norvegicus, UniProt P52500) measurements of Ki, listed per entry.
Sequence (P52500 whole entry): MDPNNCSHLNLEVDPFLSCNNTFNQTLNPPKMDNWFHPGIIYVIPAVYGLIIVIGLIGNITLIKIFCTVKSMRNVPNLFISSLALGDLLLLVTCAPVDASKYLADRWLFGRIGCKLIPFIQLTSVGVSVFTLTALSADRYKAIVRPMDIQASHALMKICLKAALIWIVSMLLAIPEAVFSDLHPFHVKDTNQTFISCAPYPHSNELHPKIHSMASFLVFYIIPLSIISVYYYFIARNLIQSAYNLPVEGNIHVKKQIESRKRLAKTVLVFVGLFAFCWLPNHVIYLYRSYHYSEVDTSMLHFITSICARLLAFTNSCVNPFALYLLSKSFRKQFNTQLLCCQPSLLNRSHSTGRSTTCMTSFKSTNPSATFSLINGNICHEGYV

Example entries and their recorded answers appear below.
[[record]]
compound = "CC(C)[C@@H]1NC(=O)[C@H](CCCCN)NC(=O)[C@@H](Cc2c[nH]c3ccccc23)NC(=O)[C@H](Cc2ccc(O)cc2)NC(=O)[C@@H](NC(=O)[C@H](N)Cc2ccc3ccccc3c2)CSSC[C@@H](C(=O)N[C@H](Cc2ccc3ccccc3c2)C(N)=O)NC1=O [Analog #8] (H-[d2Nal]CY[dW]KVC[d2Nal]-NH2; disulfide 2-7)"
tested_system = "GRP receptors on rat pancreatic acini (Rattus norvegicus, UniProt P52500)"
result = "> 10 µM"

[[record]]
compound = "CC(C)[C@@H]1NC(=O)[C@H](Cc2c[nH]cn2)NC(=O)[C@@H](Cc2c[nH]c3ccccc23)NC(=O)[C@H](Cc2ccc(O)cc2)NC(=O)[C@@H](NC(=O)[C@H](N)Cc2ccc3ccccc3c2)CSSC[C@@H](C(=O)N[C@@H](Cc2ccc3ccccc3c2)C(N)=O)NC1=O [Analog #14] (H-[d2Nal]CY[dW]HVC[2Nal]-NH2; disulfide 2-7; N-terminus assumed)"
tested_system = "GRP receptors on rat pancreatic acini (Rattus norvegicus, UniProt P52500)"
result = "> 10 µM"

[[record]]
compound = "CC(C)[C@@H]1NC(=O)[C@H](CCCCN)NC(=O)[C@@H](Cc2c[nH]c3ccccc23)NC(=O)[C@H](Cc2ccc(O)cc2)NC(=O)[C@@H](NC(=O)[C@H](N)Cc2c[nH]c3ccccc23)CSSC[C@@H](C(=O)N[C@@H](Cc2ccc3ccccc3c2)C(N)=O)NC1=O [Analog #12] (H-[dW]CY[dW]KVC[2Nal]-NH2; disulfide 2-7)"
tested_system = "GRP receptors on rat pancreatic acini (Rattus norvegicus, UniProt P52500)"
result = "> 10 µM"

[[record]]
compound = "CC(C)[C@@H]1NC(=O)[C@H](CCCCN)NC(=O)[C@@H](Cc2c[nH]c3ccccc23)NC(=O)[C@H](Cc2ccc(O)cc2)NC(=O)[C@H](NC(=O)[C@H](N)Cc2ccc3ccccc3c2)CSSC[C@@H](C(=O)N[C@@H](Cc2ccc3ccccc3c2)C(N)=O)NC1=O [Analog #10] (H-[d2Nal][dC]Y[dW]KVC[2Nal]-NH2; disulfide 2-7)"
tested_system = "GRP receptors on rat pancreatic acini (Rattus norvegicus, UniProt P52500)"
result = "> 10 µM"

[[record]]
compound = "C[C@@H](O)[C@H](NC(=O)[C@@H]1CSSC[C@H](NC(=O)[C@H](N)Cc2ccc3ccccc3c2)C(=O)N[C@@H](Cc2ccc(O)cc2)C(=O)N[C@H](Cc2c[nH]c3ccccc23)C(=O)N[C@@H](CCCCN)C(=O)N[C@@H]([C@@H](C)O)C(=O)N1)C(N)=O"
tested_system = "GRP receptors on rat pancreatic acini (Rattus norvegicus, UniProt P52500)"
result = "> 10 µM"

[[record]]
compound = "CC(C)[C@@H]1NC(=O)[C@H](CCCCN)NC(=O)[C@@H](Cc2ccc3ccccc3c2)NC(=O)[C@H](Cc2ccc(O)cc2)NC(=O)[C@@H](NC(=O)[C@H](N)Cc2ccc3ccccc3c2)CSSC[C@@H](C(=O)N[C@@H](Cc2ccc3ccccc3c2)C(N)=O)NC1=O [Analog #17] (H-[d2Nal]CY[d2Nal]KVC[2Nal]-NH2; disulfide 2-7)"
tested_system = "GRP receptors on rat pancreatic acini (Rattus norvegicus, UniProt P52500)"
result = "> 10 µM"


With those in mind, consider the next compound.
Form field Ki for item NCCCC[C@@H]1NC(=O)[C@@H](Cc2c[nH]c3ccccc23)NC(=O)[C@H](Cc2ccc(O)cc2)NC(=O)[C@@H](NC(=O)[C@H](N)Cc2ccc3ccccc3c2)CSSC[C@@H](C(=O)N[C@@H](Cc2ccc3ccccc3c2)C(N)=O)NC(=O)[C@H](Cc2ccccc2)NC1=O [Analog #13] (H-[d2Nal]CY[dW]KFC[2Nal]-NH2; disulfide 2-7) on GRP receptors on rat pancreatic acini (Rattus norvegicus, UniProt P52500): > 10 µM

FYI, the data here is from patent US5462926A.
